Quick reference: pIC50 of the listed items.
measurement_protocol: Displacement of [3H]diazepam from GABAA/BzR in rat brain membrane
Type: cell membranes
measure: pIC50

>>> measured_number("Nc1ccc2[nH]c3c[nH]c4c5ccc(Cl)cc5nc-4c3c2c1")
7.01
>>> measured_number("Brc1ccc2[nH]c3cnc4c5ccccc5[nH]c4c3c2c1")
8.22
>>> measured_number("Brc1ccc2c(c1)[nH]c1c3c4ccccc4nc-3c[nH]c12")
7.72
>>> measured_number("CCOC(=O)c1cc2c(cn1)sc1ccccc12")
5.77
>>> measured_number("Cc1nccc2c1[nH]c1ccccc12")
4.91
>>> measured_number("Clc1cc2c(cn1)[nH]c1ccccc12")
7.35
>>> measured_number("Cn1c2ccccc2c2c3[nH]c4ccccc4c3ncc21")
5.94
>>> measured_number("Clc1ccc2[nH]c3c[nH]c4c5cccc(Cl)c5nc-4c3c2c1")
6.51
>>> measured_number("Cc1cccc2c1[nH]c1c3c4ccccc4nc-3c[nH]c12")
7.08
>>> measured_number("Cn1c2ccccc2c2[nH]cc3nc4ccccc4c-3c21")
6.8
>>> measured_number("Cc1cc(-n2[nH]c3c(cnc4cc(Cl)ccc43)c2=O)cs1")
8.96
>>> measured_number("Cc1cc(-n2nc3c4cc(F)ccc4[nH]cc-3c2=O)cs1")
9.29
>>> measured_number("Cc1ccc2[nH]c3c4c5ccccc5nc-4c[nH]c3c2c1")
6.65
>>> measured_number("Cc1cc(-n2[nH]c3c(cnc4ccccc43)c2=O)cs1")
9.35
>>> measured_number("COC(=O)c1cc2c(cn1)[nH]c1ccccc12")
8.3
>>> measured_number("Clc1ccc2c(c1)[nH]c1c2ncc2[nH]c3ccccc3c21")
8
>>> measured_number("Fc1ccc2[nH]c3c4c5ccccc5nc-4c[nH]c3c2c1")
8.22
